Source listed as patent US4399274A.

# Protocol Description: Partition of avermectins between aqueous acetone and Duolite ES-863 resin (HPLC of supernatant before and after equilibration)
# Details: 80.0% acetone; ES-863 resin, similar procedures
Property Label: % Remaining in Solution
Provide a numeric answer, followed by its unit.

// worked examples, % Remaining in Solution included
Molecule	% Remaining in Solution
COC1CC(OC2C(C)OC(OC3C(C)=CCC4CC(CC5(C=CC(C)C(C(C)C)O5)O4)OC(=O)C4C=C(C)C(O)C5OCC(=CC=CC3C)C45O)CC2OC)OC(C)C1O (stereo not drawn) [B1b]	94.2%
COC1CC(OC2C(C)OC(OC3C(C)=CCC4CC(CC5(CC(O)C(C)C(C(C)C)O5)O4)OC(=O)C4C=C(C)C(OC)C5OCC(=CC=CC3C)C45O)CC2OC)OC(C)C1O (stereo not drawn) [A2b]	117%
CCC(C)C1OC2(C=CC1C)CC1CC(CC=C(C)C(OC3CC(OC)C(OC4CC(OC)C(O)C(C)O4)C(C)O3)C(C)C=CC=C3COC4C(OC)C(C)=CC(C(=O)O1)C34O)O2 (stereo not drawn) [A1a]	51.5%
COC1CC(OC2C(C)OC(OC3C(C)=CCC4CC(CC5(C=CC(C)C(C(C)C)O5)O4)OC(=O)C4C=C(C)C(OC)C5OCC(=CC=CC3C)C45O)CC2OC)OC(C)C1O (stereo not drawn) [A1b]	145%
CCC(C)C1OC2(CC3CC(CC=C(C)C(OC4CC(OC)C(OC5CC(OC)C(O)C(C)O5)C(C)O4)C(C)C=CC=C4COC5C(O)C(C)=CC(C(=O)O3)C45O)O2)CC(O)C1C (stereo not drawn) [B2a]	99.8%

Continue with the molecule presented below.
Return reported % Remaining in Solution; argument: CCC(C)C1OC2(CC3CC(CC=C(C)C(OC4CC(OC)C(OC5CC(OC)C(O)C(C)O5)C(C)O4)C(C)C=CC=C4COC5C(OC)C(C)=CC(C(=O)O3)C45O)O2)CC(O)C1C (stereo not drawn) [A2a] 86.7%
